- MEASUREMENT_NOTES: Cytotoxicity assay
- Assay type: cell-based
- PARTICULARS: human
OBSERVED_PROPERTY: pIC50
Please treat pIC50 as minus the base-10 logarithm of the molar concentration.

Query: Specify measured pIC50 for COC(=O)[C@H]1[C@@H](O)[C@@]2(O)c3c(OC)cc(O[C@@H]4O[C@@H]([C@H](O)CO)CO[C@H]4OC)cc3O[C@@]2(c2ccc(OC)cc2)[C@@H]1c1ccccc1 [Silvestrol] .
Reply: 8.00

---

- MEASUREMENT_NOTES: Cytotoxicity assay
- Type: cell-based
- PARTICULARS: human, NCI-H460 large cell lung carcinoma cells
OBSERVED_PROPERTY: IC50 at 72 h (nM)
Output spec: scalar in nM, unitless text.

Query: Specify measured IC50 at 72 h for CC[C@@]1(O)C(=O)OCc2c1cc1n(c2=O)Cc2cc3ccccc3nc2-1 [Camptothecin] .
Reply: 10
